# Measured on: CXCR2 receptor (Homo sapiens (Human))
# Sequence (P25025 whole entry): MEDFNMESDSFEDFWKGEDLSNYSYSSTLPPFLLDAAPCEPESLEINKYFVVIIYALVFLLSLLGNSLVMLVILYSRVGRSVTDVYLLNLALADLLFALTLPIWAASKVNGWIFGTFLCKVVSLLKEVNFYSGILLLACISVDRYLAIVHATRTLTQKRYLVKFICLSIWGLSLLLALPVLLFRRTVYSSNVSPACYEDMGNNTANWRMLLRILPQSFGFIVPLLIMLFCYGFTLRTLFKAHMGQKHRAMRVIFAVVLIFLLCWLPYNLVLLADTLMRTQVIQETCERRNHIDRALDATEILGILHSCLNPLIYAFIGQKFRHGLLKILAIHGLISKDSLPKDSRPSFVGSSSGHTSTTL
# Experimental details: β-arrestin 2 recruitment test, PathHunter HEK293-CXCR2 cells stimulated with CXCL8
# Recorded conditions: CXCL8 stimulation
# Method: The in vitro affinity of the compounds of the present invention for the CXCR1 and CXCR2 receptors was determined on a functional test of the β-arrestin recruitment type after receptor activation. β-Arrestin Recruitment Assay: “PathHunter HEK293-CXCR2” or “U2OS hCXCR1 β-arrestin” cells (DiscoveRx Corporation) were seeded overnight at 10 000 cells/well (384-well format) in 20 μl of Opti MEM I medium. […]
Param label: returns true when IC50 < 200 nM, returns false otherwise, including exact equality.

# Compound, Measured on, Class assignment
data = [
    ("Cc1ccc(C(Nc2c(Nc3cccc(C(=O)N4CCC[C@@H]4C(=O)OC(C)(C)C)c3O)c(=O)c2=O)C2(C)COC2)o1 (stereo partly shown)", "CXCR2 receptor (Homo sapiens (Human))", "true"),
    ("COc1ccc(Nc2c(NC(c3ccc(C)o3)C3(C)COC3)c(=O)c2=O)c(O)n1 (stereo not shown)", "CXCR2 receptor (Homo sapiens (Human))", "false"),
    ("COC(=O)[C@H]1CCCN1C(=O)c1cccc(Nc2c(N[C@@H](c3ccc(C)o3)C3(C)COC3)c(=O)c2=O)c1O", "CXCR2 receptor (Homo sapiens (Human))", "true"),
    ("COC(=O)CN(C)C(=O)c1cccc(Nc2c(N[C@@H](c3ccc(C)o3)C3(C)COC3)c(=O)c2=O)c1O", "CXCR2 receptor (Homo sapiens (Human))", "true"),
    ("Cc1ccc(C(Nc2c(Nc3cccc(C(C)O)c3O)c(=O)c2=O)C2(C)COC2)o1 (stereo not shown)", "CXCR2 receptor (Homo sapiens (Human))", "false"),
]

**Q:** Bench note: check whether Cc1ccc(C(Nc2c(Nc3cccc(C(=O)N4CCOCC4)c3O)c(=O)c2=O)C2(C)COC2)o1 (stereo not shown) shows IC50 below 200 nM
**A:** false

**Q:** Bench note: check whether Cc1ccc(C(Nc2c(Nc3cccc(C(=O)N4CC[C@H](O)C4)c3O)c(=O)c2=O)C2(C)COC2)o1 (stereo partly shown) shows IC50 below 200 nM
**A:** false

**Q:** Bench note: check whether Cc1ccc(C(Nc2c(Nc3cccc(C(=O)N4CC[C@@H](O)C4)c3O)c(=O)c2=O)C2(C)COC2)o1 (stereo partly shown) shows IC50 below 200 nM
**A:** false

**Q:** Bench note: check whether Cc1ccc(C(Nc2c(Nc3cccc(C#N)c3O)c(=O)c2=O)C2(C)COC2)o1 (stereo not shown) shows IC50 below 200 nM
**A:** false

**Q:** Bench note: check whether CC(C)c1coc(C(Nc2c(Nc3cccc(C(=O)N(C)C)c3O)c(=O)c2=O)C2(C)COC2)c1 (stereo not shown) shows IC50 below 200 nM
**A:** true

**Q:** Bench note: check whether Cc1ccc(C(Nc2c(Nc3cccc(S(=O)(=O)N(C)C)c3O)c(=O)c2=O)C2(C)COC2)o1 (stereo not shown) shows IC50 below 200 nM
**A:** false

###

Entries annotated with measured pIC50
# Measured on: UniProt P25024
# Sequence (P25024 whole entry): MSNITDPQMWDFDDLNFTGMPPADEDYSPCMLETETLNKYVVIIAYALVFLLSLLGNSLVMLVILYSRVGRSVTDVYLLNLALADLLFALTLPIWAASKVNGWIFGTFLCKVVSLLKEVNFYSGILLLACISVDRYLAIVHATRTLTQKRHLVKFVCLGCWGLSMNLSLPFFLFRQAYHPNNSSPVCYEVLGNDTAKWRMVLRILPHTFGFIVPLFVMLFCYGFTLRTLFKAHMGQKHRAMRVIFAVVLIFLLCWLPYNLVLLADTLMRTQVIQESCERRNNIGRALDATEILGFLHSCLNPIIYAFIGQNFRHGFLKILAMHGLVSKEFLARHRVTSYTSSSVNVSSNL
# Experimental details: β-arrestin 2 recruitment test, U2OS hCXCR1 β-arrestin cells stimulated with CXCL8
# Recorded conditions: CXCL8 stimulation
# Experimental: The in vitro affinity of the compounds of the present invention for the CXCR1 and CXCR2 receptors was determined on a functional test of the β-arrestin recruitment type after receptor activation. β-Arrestin Recruitment Assay: “PathHunter HEK293-CXCR2” or “U2OS hCXCR1 β-arrestin” cells (DiscoveRx Corporation) were seeded overnight at 10 000 cells/well (384-well format) in 20 μl of Opti MEM I medium. […]
In simple prose, pIC50 is minus the logarithm base ten of a concentration in moles per litre.

The following molecules have reported results that may help.
# Molecule, pIC50
data = [
    ("Cc1ccc(C(Nc2c(Nc3cccn(C)c3=O)c(=O)c2=O)C2(C)COC2)o1 (stereo not shown)", 5.30),
    ("Cc1ccc(C(Nc2c(Nc3cccc(C(=O)C(C)C)c3O)c(=O)c2=O)C2(C)COC2)o1 (stereo not shown)", 5.00),
    ("Cc1ccc(C(Nc2c(Nc3cccc(C(=O)N4CCC(O)C4)c3)c(=O)c2=O)C2(C)COC2)o1 (stereo not shown)", 5.45),
    ("Cc1ccc([C@H](Nc2c(Nc3ccc(Cl)c(S(=O)(=O)N4CCN(C)CC4)c3O)c(=O)c2=O)C2(C)COC2)o1", 6.94),
    ("Cc1ccc(C(Nc2c(Nc3ccc(Cl)nc3O)c(=O)c2=O)C2(C)COC2)o1 (stereo not shown)", 5.28),
]

The reported UniProt P25024 pIC50 of Cc1cc(C(Nc2c(Nc3cccc(C(=O)N(C)C)c3O)c(=O)c2=O)C2(C)COC2)oc1C (stereo not shown) is 5.81

The reported UniProt P25024 pIC50 of Cc1ccc(C(Nc2c(Nc3cccc(C(C)O)c3O)c(=O)c2=O)C2(C)COC2)o1 (stereo not shown) is 5.19

The reported UniProt P25024 pIC50 of "Cc1ccc([C@H](Nc2c(Nc3ccc(Cl)c(C(=O)N(C)C)c3O)c(=O)c2=O)C2(C)COC2)o1" is 6.05

The reported UniProt P25024 pIC50 of Cc1ccc(C(Nc2c(Nc3cccc(C(=O)N4CCCC4)c3O)c(=O)c2=O)C2(C)COC2)o1 (stereo not shown) is 5.89

The reported UniProt P25024 pIC50 of Cc1ccc(C(Nc2c(Nc3cccc(S(=O)(=O)N(C)C)c3O)c(=O)c2=O)C2(C)COC2)o1 (stereo not shown) is 5.84
